experiment: Solubility of Compound 1 with solubility enhancers (visual examination and analytical assay)
stated.conditions: Sulfobutylether-β-cyclodextrin (Captisol) solution

- substance: "H-GYYWSWIRQPPGKGEEWIG-OH [Compound 1]"
  solubility: "~2500 µg/mL"

* * *

experiment: Solubility of Compound 1 with solubility enhancers (visual examination and analytical assay)
stated.conditions: Hydroxypropyl-β-cyclodextrin solution
property: solubility

- substance: "H-GYYWSWIRQPPGKGEEWIG-OH [Compound 1]"
  property: "solubility"
  result: "~10000 µg/mL"

Values from patent US20130023485A1
